biological target: T1, HLA-A0201 on T2 cells (human); experiment: T2 cell affinity test, 100 uM peptide, flow cytometry; FI=(MFI sample-MFI background)/MFI background
T1 construct: MHC class I molecule on TAP-deficient T2 cells; also called HLA-A0201 antigen
ENDPOINT_NAME: FI (fluorescence index)
Number only, please.

Some binders with known FI (fluorescence index) results, for comparison:
KLMGIVYKL (Synthetic 9-mer; also called mutated polypeptide) [KLMGIVYKL polypeptide (SEQ ID NO: 4)]: 2.23
KMMGIVYKL (Synthetic 9-mer; also called mutated polypeptide) [KMMGIVYKL polypeptide (SEQ ID NO: 5)]: 2.09
KLMGIVNKV [wild-type polypeptide KLMGIVNKV (SEQ ID NO: 6)]: 1.89

Below: the item to evaluate.
INPUT: Note FI (fluorescence index) for the binder shown: KLMGIVYKV (Synthetic 9-mer made by solid phase synthesis; It is the fragment of the mutated (N136Y) Twist neighbor protein; also called mutated polypeptide) [KLMGIVYKV polypeptide (SEQ ID NO: 2)]
OUTPUT: 1.97

FYI, the data here is from patent US20220033438A1.
